The reported numbers originate from PubChem BioAssay AID1259415.

# protocol details: qHTS Assay for inhibitors of the human cytomegalovirus (HCMV); also: % is scaled to controls: 0 for no effect and ±100 for the full control effect
# test settings: HFF cells, HCMV-luciferase reporter, 72 h; at 57.5 µM
The campaign covered roughly 410,000 compounds. About 18,000 (4.4%) were called active. Another 7% or so got no clear call; they are omitted. Rule as the data show it: active = activity change below about -60%; inconclusive = no clear call, values can overlap the other calls; inactive = above about -39%. For the sample, actives were picked, then their nearest neighbours and some compounds at random.
Assign a class; possible classes are 1.0 for active, 0.0 for inactive

// param item: `COc1ccc(NC(C)=O)cc1NC(=O)CN1CCN(c2ccc(F)cc2)CC1` ; yields the recorded call
0.0

// param item: `C=C(C)C(=O)O[C@H]1C/C(C)=C\C(=O)/C=C(\C)[C@H](O)[C@@H]2OC(=O)C(=C)[C@@H]21` ; yields the recorded call
1.0

// param item: `COc1cc(CNCCSc2nnnn2C)ccc1OCc1ccc(Cl)cc1Cl` ; yields the recorded call
0.0

// param item: `CCOc1cc(-c2nnc(SCC(=O)NC3CCCC3)nc2-c2ccc(OC)c(OCC)c2)ccc1OC` ; yields the recorded call
0.0

// param item: `COc1cccc(CNCCSc2nnnn2C)c1OCc1ccccc1Cl` ; yields the recorded call
1.0

// param item: COc1cc2c(cc1OC)C(c1ccccc1Br)NC(=O)C2 (stereo not drawn) ; yields the recorded call
1.0

// param item: `O=C(/C=C/c1c(F)cccc1Cl)Nc1nn[nH]n1` ; yields the recorded call
0.0

// param item: `OCc1cnc(SCc2ccc(F)cc2)n1Cc1ccc(F)cc1` ; yields the recorded call
0.0

// param item: O=C(CC(NCc1cccnc1)C(=O)O)Nc1ccc(O)cc1 (stereo not drawn) ; yields the recorded call
0.0

// param item: `CCOc1ccc(CNCCSc2nnnn2C)cc1` ; yields the recorded call
0.0

// param item: `O=S(=O)(NCCS(=O)(=O)N1CCN(c2ccccc2)CC1)c1ccc(Cl)cc1` ; yields the recorded call
0.0

// param item: `N#Cc1ccccc1Sc1ccccc1C(=O)OCC(=O)NC1CCCCC1` ; yields the recorded call
0.0

// param item: CC(C)Oc1ccccc1C(=O)NC(CO)C(=O)O (stereo not drawn) ; yields the recorded call
0.0

// param item: `Cc1nc2c(c(C)nn2-c2ccccc2)c(C)c1CCC(=O)NCCc1ccc(Cl)cc1` ; yields the recorded call
0.0

// param item: `Cc1cc(N2CCN(c3ccc(F)cc3)CC2)n2ncnc2n1` ; yields the recorded call
0.0

// param item: `CCc1nnc2c3ccccc3nc(N3CCN(c4ccc(C)cc4C)CC3)n12` ; yields the recorded call
0.0

// param item: `CCOc1ccc(NC(=O)Cn2cc(C(=O)c3ccc(C)cc3)c(=O)c3cc4c(cc32)OCCO4)cc1` ; yields the recorded call
0.0

// param item: `Cc1ccc(S(=O)(=O)Nc2ccc3ncccc3c2)cc1` ; yields the recorded call
1.0

// param item: `O=C(NCc1ccccc1Cl)C1=Cc2cc(Br)ccc2OC1` ; yields the recorded call
0.0

// param item: `C/C(=N\OCC(=O)Nc1ccc(Br)cc1)c1cccs1` ; yields the recorded call
0.0

// param item: `CCOc1ncccc1C(=O)Nc1ccc(S(=O)(=O)Nc2nc(C)cc(C)n2)cc1` ; yields the recorded call
0.0

// param item: `CNC(=O)/C(C#N)=C/c1c(F)cccc1Cl` ; yields the recorded call
1.0

// param item: `COc1ccc(N2CCN(c3cc(C)nc4nncn34)CC2)cc1` ; yields the recorded call
1.0
